Listed binders paired with reported CCL17 % Inhibition @ 10 µM, 666 pM TSLP
Test target: TSLP (as used in the human PBMC assay) (UniProt Q969D9 29-159)
Experiment summary: cell-based or functional assay
*1 amine or outer side, *2 acyl side, *3 side chain or, on linkers, in order; H or OH if unused. Bridges are numbered along the chain shown (N, C = ends). Where no end group is shown, it is not given here. TATA = O=C(CC[*:1])N1CN(C(=O)CC[*:2])CN(C(=O)CC[*:3])C1
Quantity: CCL17 % Inhibition @ 10 µM, 666 pM TSLP

> print(dat)
                                     binder                                 quantity  result
1  ACRDLDPWTCSSWWLCADGLYDA (linker 2-10-16 via TATA) [Example 193]  CCL17 % Inhibition @ 10 µM, 666 pM TSLP     47%
2  ACTWLDDCWRGFCA (linker 2-8-13 via TATA; not fully specified (C-terminus)) [Example 76]  CCL17 % Inhibition @ 10 µM, 666 pM TSLP      0%
3  DHDCTWNWEYDCWLDCA (linker 4-12-16 via TATA) [Example 200]  CCL17 % Inhibition @ 10 µM, 666 pM TSLP    -42%
4  CQXLEDCXRGXC (not fully specified; Ac-CQ[TrpMe]LEDC[TrpMe]RG[4-FPhe]C; 3 Cys cyclised with TATA) [Example 16]  CCL17 % Inhibition @ 10 µM, 666 pM TSLP     52%
5  RAPCPDLDPWTCSDWWLCA (linker 4-12-18 via TATA) [Example 187]  CCL17 % Inhibition @ 10 µM, 666 pM TSLP     11%
6  TMEYRDCQWLEDCWRGFCA (linker 7-13-18 via TATA) [Example 56]  CCL17 % Inhibition @ 10 µM, 666 pM TSLP     40%
